Source of measurements: ChEMBL document CHEMBL4825728

system tested: UniProt:Q9H300
assay details: Inhibition of FLAG-tagged human PARL transfected in HEK293T cell membrane assessed as inhibition of FP-Rh labeling at 200 uM treated with compound prior to FP-Rh addition by competitive ABPP based analysis
Format: cell membranes
Active and inactive are the calls of the source. The rule behind the calls is not given here.
reported endpoint: inhibition

O=C(OCN1C(=O)c2ccccc2S1(=O)=O)c1ccccc1Cl = 100%
Cc1ccc(S(=O)(=O)N[C@@H](Cc2ccccc2)C(=O)CCl)cc1 = inactive
O=S(=O)(F)Cc1ccccc1 = inactive
NCCc1ccc(S(=O)(=O)F)cc1 = inactive

---

system tested: Presenilin-associated rhomboid-like protein, mitochondrial (Homo sapiens) (UniProt Q9H300)
assay details: Inhibition of FLAG-tagged human PARL transfected in HEK293T cell membrane assessed as inhibition of FP-Rh labeling at 100 uM incubated for 24 hrs followed by cells washing and lysis prior to FP-Rh labeling by In situ based analysis
Type: cell membranes
Calls of active or inactive are those of the source. No cut-off for these calls is given here.
reported endpoint: inhibition

O=C1CCC(=O)N1OS(=O)(=O)c1ccccc1 = inactive
O=C1CCC(=O)N1S(=O)(=O)c1ccccc1 = inactive
O=C(OCN1C(=O)c2ccccc2S1(=O)=O)c1ccccc1Cl = inactive
O=C1CCC(=O)N1S(=O)(=O)c1ccc([N+](=O)[O-])cc1 = inactive

---

assay details: Solubility of the compound in HEK-293T cell membrane transfected with FLAG-tagged human PARL
Format: ADME, cell membranes
reported endpoint: solubility

Here is how some compounds turned out for solubility.
CS(=O)(=O)ON1C(=O)c2ccccc2C1=O = Soluble
O=C1CCC(=O)N1S(=O)(=O)c1ccc(-c2ccccc2)cc1 = Soluble
COc1ccc(S(=O)(=O)ON2C(=O)c3ccccc3C2=O)cc1 = Soluble
COc1ccc(S(=O)(=O)N2C(=O)CCC2=O)cc1 = Soluble
O=C1CCC(=O)N1OS(=O)(=O)c1ccc(-c2ccccc2)cc1 = Soluble

The reported value for O=C1c2ccccc2C(=O)N1OS(=O)(=O)c1ccc2ccccc2c1 in terms of solubility is Soluble

// solubility lookup, compound = CC(C)S(=O)(=O)N1C(=O)c2ccccc2C1=O , result: Soluble

solubility reported for this compound O=C1CCC(=O)N1OS(=O)(=O)c1ccc2ccccc2c1 : Soluble

Lookup result for O=C1c2ccccc2C(=O)N1S(=O)(=O)c1ccccc1 ; measured solubility: Soluble

The compound listed as O=C1c2ccccc2C(=O)N1S(=O)(=O)c1ccc([N+](=O)[O-])cc1 shows solubility equal to Soluble

Documented solubility of O=C1c2ccccc2C(=O)N1OS(=O)(=O)c1ccc(-c2ccccc2)cc1 : Soluble

---

system tested: Presenilin-associated rhomboid-like protein, mitochondrial (Homo sapiens)
Sequence (Q9H300 whole entry): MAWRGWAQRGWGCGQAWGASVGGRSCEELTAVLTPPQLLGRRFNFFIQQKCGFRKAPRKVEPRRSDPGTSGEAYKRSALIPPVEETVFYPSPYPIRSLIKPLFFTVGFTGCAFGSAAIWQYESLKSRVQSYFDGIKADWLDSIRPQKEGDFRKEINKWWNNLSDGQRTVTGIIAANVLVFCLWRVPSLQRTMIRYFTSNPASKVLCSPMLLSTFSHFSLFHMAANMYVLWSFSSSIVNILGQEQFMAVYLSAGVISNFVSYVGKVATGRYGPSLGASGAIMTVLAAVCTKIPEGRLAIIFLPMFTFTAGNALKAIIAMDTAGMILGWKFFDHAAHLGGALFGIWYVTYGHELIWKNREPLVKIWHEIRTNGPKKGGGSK
assay details: Inhibition of human PARL transfected in HEK293T cell membrane assessed as inhibition of FP-Rh labeling treated with compound for 30 mins prior to FP-Rh addition by competitive ABPP based analysis
Collected pIC50 values appear next to each entry.
pIC50 is a log-scale quantity: -log10 of the concentration expressed in molar.

Worked set:
O=C1CCC(=O)N1OS(=O)(=O)c1ccccc1 = 4.70
O=C1CCC(=O)N1OS(=O)(=O)c1ccc(-c2ccccc2)cc1 = 5.72
O=C1CCC(=O)N1S(=O)(=O)c1ccc(-c2ccccc2)cc1 = 6.15

pIC50 recorded for this molecule, O=C(OCN1C(=O)c2ccccc2S1(=O)=O)c1ccccc1Cl , is 5.06

The molecule identified as O=C1CCC(=O)N1S(=O)(=O)c1ccc([N+](=O)[O-])cc1 registered its pIC50 at 6.05

pIC50 reading for O=C1CCC(=O)N1S(=O)(=O)c1ccccc1 : 5.37
